Target: T1, interleukin-23 receptor (IL-23R), Q5VWK5
T1 chain: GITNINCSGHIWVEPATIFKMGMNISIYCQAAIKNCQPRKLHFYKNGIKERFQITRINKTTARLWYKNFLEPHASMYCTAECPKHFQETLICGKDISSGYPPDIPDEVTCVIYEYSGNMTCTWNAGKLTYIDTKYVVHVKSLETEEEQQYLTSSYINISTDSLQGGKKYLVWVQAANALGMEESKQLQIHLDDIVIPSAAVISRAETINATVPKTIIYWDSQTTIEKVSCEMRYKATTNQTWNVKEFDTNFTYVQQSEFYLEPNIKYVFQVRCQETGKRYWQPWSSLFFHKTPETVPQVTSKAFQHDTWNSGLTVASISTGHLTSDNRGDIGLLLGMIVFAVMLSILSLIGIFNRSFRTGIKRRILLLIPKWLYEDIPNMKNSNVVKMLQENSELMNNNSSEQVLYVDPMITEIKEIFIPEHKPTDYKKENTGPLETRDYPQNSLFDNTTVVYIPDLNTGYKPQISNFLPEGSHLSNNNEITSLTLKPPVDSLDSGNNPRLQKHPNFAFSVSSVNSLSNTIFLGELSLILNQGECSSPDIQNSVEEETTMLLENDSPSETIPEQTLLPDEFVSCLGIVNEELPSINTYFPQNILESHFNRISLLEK
Experiment: cell-based or functional assay
Starred links: 1 amine or outer side, 2 acyl side, 3 side chain; linkers in the order of their positions; H or OH if unused. Positions of bridges follow the written chain, without caps; N, C: chain ends. Non-standard residues stand in square brackets, D forms with d. No end group written: not given here. X1 = 3‑(7-(3-acetamidophenyl)-1H-indol-3-yl)‑2‑aminopropanoic acid, CC(=O)Nc1cccc(-c2cccc3c(CC(N[*:1])C(=O)[*:2])c[nH]c23)c1; N‑methyl‑N‑acetyllysine = N-methyl-N-acetyllysine; 2Nal(6-OH) = N[C@@H](Cc1ccc2cc(O)ccc2c1)C(=O)O; Trp(7-Me) = Cc1cccc2c(C[C@H](N)C(=O)O)c[nH]c12; dLys(Me3) = C[N+](C)(C)CCCC[C@@H](N)C(=O)O; AEF = NCCOc1ccc(C[C@H](N)C(=O)O)cc1; 3Pal = N[C@@H](Cc1cccnc1)C(=O)O; Pen = CC(C)(S)[C@H](N)C(=O)O; αMeC = C[C@](N)(CS)C(=O)O; lipid = not defined here; Thp = NC1(C(=O)O)CCOCC1; Sar = CNCC(=O)O
Measured PBMC pSTAT3 IC50, listed per entry.
quantity: PBMC pSTAT3 IC50

>>> result("[Pen]NT[X1]K(Ac)[Pen][2‑amino‑3‑(4-(2-aminoethoxy)phenyl)propanoic acid][2‑amino‑3‑(6-hydroxynaphthalen-2-yl)propanoic acid][Thp]KN[3Pal][Sar] (disulfide 1-6 (inferred); ends not checked; also: K10: lipidated lysine, lipid not given here) [SEQ ID NO: 153]")
"< 0.1 nM"
>>> result("R[Pen]ET[Trp(7-Me)]K(Ac)[Pen][2‑amino‑3‑(4-(2-aminoethoxy)phenyl)propanoic acid][2‑amino‑3‑(6-hydroxynaphthalen-2-yl)propanoic acid][Thp]EN[3Pal][Sar]K (disulfide 2-7 (inferred); ends not checked; also: Lys15: lipidated lysine, lipid not given here) [SEQ ID NO: 142]")
"< 0.1 nM"
>>> result("R[Pen]KT[Trp(7-Me)]K(Ac)[Pen][AEF][2Nal(6-OH)][Thp]EN[3Pal][Sar] (not fully specified (residue 3, bridges); ends and bridges not checked; also: K3: lipidated lysine) [SEQ ID NO: 425]")
"< 1 nM"
>>> result("R[Pen]NT[Trp(7-Me)]K(Ac)[Pen][2‑amino‑3‑(4-(2-aminoethoxy)phenyl)propanoic acid][2‑amino‑3‑(6-hydroxynaphthalen-2-yl)propanoic acid][Thp]K(Ac)N[3Pal][Sar] (disulfide 2-7 (inferred); ends not checked) [SEQ ID NO: 219]")
"< 0.1 nM"
>>> result("[N‑amino‑O‑(2-(2-(methylamino)ethoxy)ethyl)‑D‑serine][Pen]NT[Trp(7-Me)][N‑methyl‑N‑acetyllysine][Pen][AEF][2Nal(6-OH)][Thp]DN[3Pal][Sar] (disulfide 2-7 (inferred); ends not checked) [SEQ ID NO: 290]")
"< 0.1 nM"
>>> result("R[Pen]ET[Trp(7-Me)]K(Ac)[Pen][AEF][2Nal(6-OH)][Thp]K(Ac)N[3Pal][Sar] (not fully specified (bridges); ends and bridges not checked) [SEQ ID NO: 421]")
"< 1 nM"
>>> result("[Pen]NT[Trp(7-Me)]K(Ac)[Pen][2‑amino‑3‑(4-(2-aminoethoxy)phenyl)propanoic acid][2‑amino‑3‑(6-hydroxynaphthalen-2-yl)propanoic acid][Thp]K(Ac)N[3Pal][Sar]K(lipid) (disulfide 1-6 (inferred); ends not checked; also: K14: lipidated lysine) [SEQ ID NO: 271]")
"< 1 nM"
>>> result("K[Pen]ET[Trp(7-Me)]K(Ac)[Pen][2‑amino‑3‑(4-(2-aminoethoxy)phenyl)propanoic acid][2‑amino‑3‑(6-hydroxynaphthalen-2-yl)propanoic acid][Thp]EN[3Pal][Sar] (not fully specified (residue 1, bridges); ends and bridges not checked; also: Lys1: lipidated lysine, lipid not given here) [SEQ ID NO: 395]")
"< 1 nM"
>>> result("CNT[Trp(7-Me)]K(Ac)[αMeC][2‑amino‑3‑(4-(2-aminoethoxy)phenyl)propanoic acid][2‑amino‑3‑(6-hydroxynaphthalen-2-yl)propanoic acid][Thp]K(Ac)N[3Pal][Sar] (ends and bridges not checked) [SEQ ID NO: 5]")
"< 10 pM"
>>> result("R[Pen]NT[Trp(7-Me)]K(Ac)[Pen][2‑amino‑3‑(4-(2-aminoethoxy)phenyl)propanoic acid][2‑amino‑3‑(6-hydroxynaphthalen-2-yl)propanoic acid][Thp]K(Ac)N[3Pal][Sar] (disulfide 2-7 (inferred); ends not checked) [SEQ ID NO: 220]")
"< 1 nM"
>>> result("[dLys(Me3)][Pen]NT[Trp(7-Me)]K(Ac)[Pen][5‑(4-(2-amino-2-carboxyethyl)phenoxy)‑N,N,N‑trimethylpentan‑1‑aminium][2Nal(6-OH)][Thp]EN[3Pal][Sar] (not fully specified (bridges); ends and bridges not checked) [SEQ ID NO: 67]")
"< 0.1 nM"

The values you see were collected from patent US20240279281A1.
